# Tested on: Escherichia coli TOP10;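 also: peptides expressed intracellularly from a pBAD plasmid library in pooled LB shake-flask culture, induced with 0.3% L-arabinose, DNA abundance read by NGS, three biological replicates, DESeq2 with apeglm shrinkage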
# TEST DETAILS: shrunken log2 fold change of peptide-encoding DNA abundance (4.5 h post-induction vs induction); higher = less antimicrobial activity (less host growth inhibition)
# CONDITION INFO: time post-induction: 4.5 h; library: site-saturation at positions 5, 18, 19, 20
Label 1 when shrunken log2 fold change is at or above -0.05; anything below gets 0.

RRIRERPPRLPRPRPRPERYPRP : 0
RRIRIRPPRLPRPRPRPQRLPRP : 1
RRIRNRPPRLPRPRPRPHPCPRP : 1
RRIRQRPPRLPRPRPRPGQPPRP : 1
RRIRIRPPRLPRPRPRPGQYPRP : 0

input: # check: shrunken log2 fold change of "RRIRGRPPRLPRPRPRPCDTPRP" is greater than or equal to -0.05
output: 1

input: Does "RRIRRRPPRLPRPRPRPETVPRP" have a reported shrunken log2 fold change of at least -0.05?
output: 0

input: Hi, just wondering whether "RRIRFRPPRLPRPRPRPMGDPRP" shows shrunken log2 fold change of -0.05 or higher.
output: 1

Taken from the supplement of paper PMC9112550.
